- System: MDA-MB-231
- ASSAY_DETAILS: NCI tumour cell line growth inhibition, 48 h
Active and inactive are the calls of the source. Rule as the data show it: active = GI50 up to about 1.1 µM and inactive = higher.
Please state which outcome applies, choosing from active, inactive

How did this test come out for CO/C(=N\N=C(/c1ccccc1)C(F)(F)F)c1ccncc1 ?
inactive

How did this test come out for COc1cc(/C=N/N=C(\N)NO)cc(OC)c1OC ?
inactive

How did this test come out for OC1CN2CCS[C@H]2C(O)C1O (stereo partly specified) ?
inactive

How did this test come out for CCSc1c2cc(OC)ccc2nc2ccc(OC)cc12 ?
inactive

How did this test come out for NC1CNC(=O)c2c(Cl)sc(Cl)c21 (stereo unspecified) ?
inactive

How did this test come out for COc1cc([C@@]23OC[C@@H]4[C@@H](OC[C@@H]42)c2cc4c(cc23)OCO4)cc(OC)c1OC ?
active

----------
- Tested on: KM12
- ASSAY_DETAILS: NCI tumour cell line growth inhibition, 48 h
Calls of active or inactive are those of the source. Rule as the data show it: active = GI50 up to about 1.1 µM and inactive = higher.
QUANTITY_KIND: GI50

I would be grateful if you could share the reported GI50 for COc1cc(CCNC2=CC(=O)c3ncccc3C2=O)ccc1O .
5.25 µM (inactive)

I would be grateful if you could share the reported GI50 for NC(CCc1ncc(C(=O)O)s1)C(=O)O (stereo unspecified) .
> 100 µM (inactive)

I would be grateful if you could share the reported GI50 for C[N+](C)(C)CC1CCc2ccccc2C1=O (stereo unspecified) .
10.8 µM (inactive)

I would be grateful if you could share the reported GI50 for CC1NOC(=O)C1/N=N/c1ccccc1Cl (stereo unspecified) .
64.7 µM (inactive)

I would be grateful if you could share the reported GI50 for Cn1nc(-c2ccc(S(=O)(=O)N/C(=N/c3ccc(Cl)cc3)NN)s2)cc1C(F)(F)F .
16.6 µM (inactive)

I would be grateful if you could share the reported GI50 for C1=CC=C2NCCOCC/N=C3/C=CC=CC=C3NCCOCC/N=C\2C=C1 .
66.2 µM (inactive)

I would be grateful if you could share the reported GI50 for CCOC1=NC(C(F)(F)F)(C(F)(F)F)N=C(N2CCOCC2)O1 .
> 100 µM (inactive)

I would be grateful if you could share the reported GI50 for O=C1CCCn2c(nc3ccccc32)N1 .
> 100 µM (inactive)

I would be grateful if you could share the reported GI50 for CC(=O)O[C@H]1[C@@H](N2CCOCC2)C[C@H]2[C@@H]3CC=C4C[C@@H](N5CCCC5)CC[C@]4(C)[C@H]3CC[C@@]21C .
> 100 µM (inactive)

I would be grateful if you could share the reported GI50 for CC1(C)[C@@H]2CC[C@]1(C)[C@H](OC(=O)CSC#N)C2 .
> 100 µM (inactive)

I would be grateful if you could share the reported GI50 for O=C1C=CC(O)(C#CCO)C=C1 .
17.5 µM (inactive)

----------
Hi there, I'd appreciate the recorded GI50 for every entry that follows.
- Tested on: NCI-H23
- ASSAY_DETAILS: NCI tumour cell line growth inhibition, 48 h
The source made the active and inactive calls. No stated cut-off is given here; in the data, active = GI50 up to about 1.1 µM and inactive = higher.

I would be grateful if you could share the reported GI50 for O=C1Oc2ccccc2N/C1=C/C(=O)c1ccc([N+](=O)[O-])cc1 .
> 100 µM (inactive)

I would be grateful if you could share the reported GI50 for CCCCCCCCCCOC(=O)c1cc[n+](C)cc1 .
19.9 µM (inactive)

I would be grateful if you could share the reported GI50 for N#Cc1c(N)nc(Sc2ccccc2N)c(C#N)c1-c1ccccc1 .
13.3 µM (inactive)

I would be grateful if you could share the reported GI50 for CN(NC1OC(CO)C(O)C(O)C1O)c1ccccc1 (configuration not stated) .
> 100 µM (inactive)

I would be grateful if you could share the reported GI50 for CC(C)(C)OC(=O)NCC(=O)N(CCc1ccc(Cl)c(Cl)c1)CCN1CCCC1 .
17.1 µM (inactive)

I would be grateful if you could share the reported GI50 for Cc1ccc(NS(=O)(=O)c2cc(C(C)(C)C)ccc2OCCOCCOCCOc2ccc(C(C)(C)C)cc2S(=O)(=O)Nc2ccc(C)cc2)cc1 .
> 100 µM (inactive)

I would be grateful if you could share the reported GI50 for COC(=O)/C=C1\CCC(C)O1 (configuration not stated) .
> 100 µM (inactive)

I would be grateful if you could share the reported GI50 for O=C(Nc1ccc2c(c1)oc(=O)c1ccccc12)C(Cl)Cl .
> 100 µM (inactive)

I would be grateful if you could share the reported GI50 for Cn1cc(NC(=O)Nc2cc(C(=O)Nc3cc(C(=O)Nc4ccc5cc(S(=O)(=O)O)cc(S(=O)(=O)O)c5c4)n(C)c3)n(C)c2)cc1C(=O)Nc1cc(C(=O)Nc2ccc3cc(S(=O)(=O)O)cc(S(=O)(=O)O)c3c2)n(C)c1 .
> 100 µM (inactive)

I would be grateful if you could share the reported GI50 for O=C(O)CP(=S)(S)c1ccccc1 (configuration not stated) .
> 100 µM (inactive)

I would be grateful if you could share the reported GI50 for Nc1ccc2nc3n(c2c1)C(c1c(F)cccc1F)SC3 (configuration not stated) .
> 100 µM (inactive)

I would be grateful if you could share the reported GI50 for [N-]=[N+]=NC(c1cn(C2CC(O)C(CO)O2)c(=O)[nH]c1=O)C(Br)I (configuration not stated) .
> 100 µM (inactive)

I would be grateful if you could share the reported GI50 for OC1(c2ccc(Cl)cc2)c2c(ccc3c2OCO3)C2=NCCN21 (configuration not stated) .
63 µM (inactive)

I would be grateful if you could share the reported GI50 for COc1ccc(N2C=Nn3c(nc4sc(C)c(C)c4c3=O)C2)cc1 .
> 100 µM (inactive)

I would be grateful if you could share the reported GI50 for Cc1noc2nnn(-c3ccc(Cl)cc3)c(=O)c12 .
4.75 µM (inactive)

I would be grateful if you could share the reported GI50 for CC(=O)C1(c2ccccc2)CCCN(C)CC1 (configuration not stated) .
> 100 µM (inactive)

I would be grateful if you could share the reported GI50 for CCOC(=O)C1=COC(C)(c2ccccc2)CC1=O (configuration not stated) .
> 100 µM (inactive)

I would be grateful if you could share the reported GI50 for C=C1C(=O)OCC2C(C(=O)O)=CC3C(C)C(C)=CC123 (configuration not stated) .
8.36 µM (inactive)

I would be grateful if you could share the reported GI50 for CCC1(c2ccccc2)Sc2ccccc2-n2cccc2C1=O (configuration not stated) .
> 10 µM (inactive)

I would be grateful if you could share the reported GI50 for COC(=O)CCc1cc(OC)c(O)c(C(Cc2ccc(OC)c(OC)c2)C(=O)OC)c1 (configuration not stated) .
> 100 µM (inactive)

I would be grateful if you could share the reported GI50 for COC12CC(O)=C(C(C)=O)C(=O)C1(C)c1c(OC(C)=O)c(C)c(O)c(C(C)=O)c1O2 (configuration not stated) .
4.86 µM (inactive)

I would be grateful if you could share the reported GI50 for C#C[C@H]1CCCCCC1O (some centres not stated) .
> 100 µM (inactive)

I would be grateful if you could share the reported GI50 for CN(C)C(=O)/C=C/c1c[nH]c(=O)[nH]c1=O .
> 500 µM (inactive)

I would be grateful if you could share the reported GI50 for Cc1c(-c2nc3ccccc3[nH]2)c(=O)n(-c2ccccc2)n1C .
> 100 µM (inactive)

I would be grateful if you could share the reported GI50 for Clc1ccc(-c2nn3c(-c4ccncc4)nnc3s2)cc1 .
> 100 µM (inactive)

I would be grateful if you could share the reported GI50 for CN(C)CC(CC1=C(CC(CN(C)C)N(C)C)CCC1)N(C)C (configuration not stated) .
> 100 µM (inactive)

I would be grateful if you could share the reported GI50 for CO/C=C(/C(=O)OC)c1ccccc1[C@H]1C[C@@H]1c1ccc(OC)cc1 .
27.9 µM (inactive)

I would be grateful if you could share the reported GI50 for CS(=O)(=O)c1ccc(C(=O)O[C@@H]2C(=O)N3CC[C@H]4OC(O)[C@@H]2[C@H]43)cc1 (some centres not stated) .
> 100 µM (inactive)

I would be grateful if you could share the reported GI50 for C1=CC=C2NCCOCC/N=C3/C=CC=CC=C3NCCOCC/N=C\2C=C1 .
> 100 µM (inactive)

I would be grateful if you could share the reported GI50 for S=C1N(c2ccc(Cl)cc2)C2=C(/N=N/c3ccccc3)C(=Nc3ccccc3S2)N1c1ccccn1 .
15 µM (inactive)

I would be grateful if you could share the reported GI50 for O=C1Nc2ccccc2/C1=N/NC(=S)N1CCCC1 .
3.01 µM (inactive)

I would be grateful if you could share the reported GI50 for CO/C(C)=N/CCC1=CCCCC1 .
> 100 µM (inactive)

I would be grateful if you could share the reported GI50 for CCOC(=O)c1ncoc1[C@H]1COC(C)(C)O1 .
> 100 µM (inactive)

I would be grateful if you could share the reported GI50 for Clc1ccc(C2ON=C(c3ccccc3)N2C23CC4CC(CC(C4)C2)C3)cc1 (configuration not stated) .
> 10 µM (inactive)

I would be grateful if you could share the reported GI50 for O=C1C(=O)N(c2cc(Cl)ccc2Cl)C(=O)C(=O)C1c1nc2ccccc2o1 .
> 100 µM (inactive)

I would be grateful if you could share the reported GI50 for Cc1cccc(NC(=O)/C=C/c2ccc(N(CCC#N)CCC#N)cc2C)c1 .
> 100 µM (inactive)

I would be grateful if you could share the reported GI50 for C/C(=N\N(C)C)C(CN1CCCCC1)C(c1ccccc1)c1c(O)c2ccccc2oc1=O (configuration not stated) .
> 100 µM (inactive)

I would be grateful if you could share the reported GI50 for COc1ccccc1N1CCN(CCCN2C(C(=O)c3ccccc3)=C(O)c3c(C)cc(C)nc3S2(=O)=O)CC1 .
> 100 µM (inactive)

I would be grateful if you could share the reported GI50 for COc1ccc([C@]23CCN(S(=O)(=O)c4ccc(C)cc4)[C@H]2[C@H](CO)C2(CC3)OCC(C)(C)CO2)cc1OC .
> 100 µM (inactive)

I would be grateful if you could share the reported GI50 for CC(C)C.C[N+](C)(C)C.OC(c1ccccc1)(C(F)(F)F)C(F)(F)F.OC(c1ccccc1)(C(F)(F)F)C(F)(F)F.[SiH3-] .
3.25 µM (inactive)

I would be grateful if you could share the reported GI50 for CCCCCCCCCCCC(=O)OCC1OC(n2cc(F)c(=O)[nH]c2=O)C(N)C(O)C1O (configuration not stated) .
84.7 µM (inactive)

I would be grateful if you could share the reported GI50 for O=S1(=O)OCCOS(=O)(=O)C1C1c2ccccc2-c2ccccc21 .
28.7 µM (inactive)

Hello, the source for this data is ChEMBL document CHEMBL1201862, in case you need it.
